assayMethodText: pharmacokinetics/toxicokinetics in dogs
testSettings: both, Beagle, dog, in vivo, po
valueType: CL/F

Q: # return recorded CL/F for entry "O=C1C2=C(CCN(Cc3ccccc3)C2)N2CCN=C2N1Cc1ccc(F)cc1F"
Ans: 83.3 to 1680 mL/min/kg

###

assayMethodText: pharmacokinetics/toxicokinetics in dogs
testSettings: both, Beagle, dog, in vivo, po
valueType: half-life

Q: Give a short answer stating reported half-life for "O=C1C2=C(CCN(Cc3ccccc3)C2)N2CCN=C2N1Cc1ccc(F)cc1F" .
Ans: 0.7 to 7.1 h

###

assayMethodText: pharmacokinetics/toxicokinetics in dogs
testSettings: beagle, dog, in vivo
valueType: half-life

Q: Name the recorded half-life of the item "O=C1C2=C(CCN(Cc3ccccc3)C2)N2CCN=C2N1Cc1ccc(F)cc1F" in your answer.
Ans: 0.7 to 7.1 h
